Task for the reader: assign each of the following molecules its reported melting point.

Name the reported melting point value associated with the molecule CCOC(=O)c1cnn(Cc2cnn(CC(O)(O)C(F)(F)F)c2)c1
81 to 84 °C

Any idea what its melting point is? The molecule is O=C(NCC1CC1)c1csc(Cc2ccc(OCC3(C(F)(F)F)OCCO3)cc2)n1
88 to 92 °C

Query: melting point; subject: CCO/C(=C\Oc1ccc(Cn2cc(C(=O)OCc3ccccc3)cn2)cc1)C(F)(F)F
63 to 67 °C

So what does the record say about melting point for OC(O)(COc1cccc(Cn2cc(Br)cn2)c1)C(F)(F)F ?
83.7 to 86.5 °C

So what does the record say about melting point for CCOC(=O)c1cnn(Cc2c(F)c(F)c(OCC3(C(F)(F)F)OCCO3)c(F)c2F)c1 ?
59 to 62 °C

---

test system: Puccinia recondita f. sp. tritici (the causal agent of wheat leaf rust); experiment: Test B: preventive spray on wheat seedlings, disease rating (100 = 100% control; * 50 ppm, ** 10 ppm, *** 250 ppm); assay type: in vivo; details: Puccinia recondita; 10 ppm test suspension; 100 = 100% disease control, 0 = no control
Parameter Measured: pest or weed control at 10 ppm (%)
Dear colleague, please return just the value in %, with no unit written.

Endpoint output: pest or weed control at 10 ppm of CCOC(=O)c1cnn(COc2ccc(OCC(O)(O)C(F)(F)F)cc2)c1 [Compound 366] . Value?
55

Looking for the measured pest or weed control at 10 ppm of CCOC(=O)c1cnn(CCCc2cccc(OCC(O)(O)C(F)(F)F)c2)c1 [compound 417] , can you help?
0

Which pest or weed control at 10 ppm is listed for CCOC(=O)c1cnn(Cc2c(F)c(F)c(OCC3(C(F)(F)F)OCCO3)c(F)c2F)c1 [compound 392] ?
19

For the compound shown here, CCOC(=O)c1cnn(Cc2ccc(OCC3(C(F)(F)F)OCCO3)c(F)c2)c1 [Compound 263] , give the reported pest or weed control at 10 ppm.
0

For the compound shown here, CCOC(=O)c1cnn(COc2cccc(OCC(O)(O)C(F)(F)F)c2)c1 [compound 320] , give the reported pest or weed control at 10 ppm.
68

Bench note: what pest or weed control at 10 ppm did OC(O)(COc1cccc(Cn2cc(Br)cn2)c1)C(F)(F)F [compound 386] show?
19

Given CCO/C(=C\Oc1cccc(Cc2nc(C(=O)NCC(F)F)cs2)c1)C(F)(F)F [compound 398] , state its recorded pest or weed control at 10 ppm.
0

Give its pest or weed control at 10 ppm value. Item: CCOC(=O)c1cn(Cc2cccc(O/C=C(\OCC)C(F)(F)F)c2)cn1 [compound 446]
0

---

tested on: Blumeria graminis f. sp. tritici (the causal agent of wheat powdery mildew); experiment: Test E: preventive spray on wheat seedlings, visual disease rating (100 = 100% control; * 50 ppm, ** 10 ppm, *** 250 ppm); assay type: in vivo; conditions: 250 ppm test suspension; 100 = 100% disease control, 0 = no control
Marks after values point to notes of the source that are not given here.
Would you kindly list Test E disease control rating for each of these compounds?

Suppose we examine the compound CCOC(=O)c1cnn(Cc2ccc(O/C=C(\OCC)C(F)(F)F)c(Cl)c2)c1 ; what Test E disease control rating value has been reported?
94*** %

Would you mind telling me what Test E disease control rating value was observed for CCOC(=O)c1cnn(Cc2ccc(O/C=C(\OCC)C(F)(F)F)cc2F)c1 ?
99*** %

// lookup Test E disease control rating for CCOC(=O)c1cnn(Cc2ccc(O/C=C(\OCC)C(F)(F)F)c(I)c2)c1
76*** %

Bench note: what Test E disease control rating did CC(=O)N1CC(c2ccc(OCC3(C(F)(F)F)OCCO3)cc2)C1 show?
99*** %

Fill in: Test E disease control rating of CCOC(=O)c1cnn(Cc2c(F)c(F)c(O/C=C(\OCC)C(F)(F)F)c(F)c2F)c1 is ___
99*** %

Can you look up the measured Test E disease control rating of CCO/C(=C\Oc1ccc(Cn2cc(C(=O)NC3CCCC3)cn2)cc1)C(F)(F)F for me?
0*** %

Param item = CCO/C(=C\Oc1ccc(Cc2ncc(C(=O)NCC3CC3)o2)cc1)C(F)(F)F ; retrieve measured Test E disease control rating.
53*** %

What Test E disease control rating value was documented for this compound, CCOC(=O)c1cnn(Cc2ccc(O/C=C(\OCC)C(F)(F)F)c(F)c2F)c1 ?
99*** %

Dear colleague, I am looking for the recorded Test E disease control rating of the following compound: CCO/C(=C\Oc1cccc(Cn2cc(C(=O)NCc3ncccn3)cn2)c1)C(F)(F)F
0*** %

Name the reported Test E disease control rating value associated with the compound O=C(NCC1CC1)c1cnc(Cc2ccc(OCC3(C(F)(F)F)OCCO3)cc2)s1
83*** %

Would you kindly share the measured Test E disease control rating for CCS(=O)(=O)N1CC(c2ccc(OCC3(C(F)(F)F)OCCO3)cc2)C1 ?
56*** %

# Test E disease control rating lookup, item CCO/C(=C\Oc1cccc(Cn2cc(C(=O)N(CC)CC)cn2)c1)C(F)(F)F
0*** %

Which Test E disease control rating value belongs to O=[N+]([O-])c1ccc(OCC(O)(O)C(F)(F)F)cc1 ?
99*** %

Give its Test E disease control rating value. Item: CCO/C(=C\Oc1cccc(Cn2cc(C(=O)NCC(F)(F)F)cn2)c1)C(F)(F)F
0*** %

Field request: Test E disease control rating | item: CCO/C(=C\Oc1cccc(Cn2cc(C(=O)NC)cn2)c1)C(F)(F)F
0*** %

Quick one: Test E disease control rating of CCOC(=O)c1cnn(Cc2ccc(N(C#N)CC(O)(O)C(F)(F)F)cc2)c1 ?
69*** %

Item CCOC(=COc1ccc(NC(=O)c2ccccc2F)cc1)C(F)(F)F has what recorded Test E disease control rating?
69*** %

---

system: Zymoseptoria tritici (the causal agent of wheat leaf blotch); experiment: Test D: preventive spray on wheat seedlings, disease rating (100 = 100% control; * 50 ppm, ** 10 ppm, *** 250 ppm); type: in vivo; conditions: 250 ppm test suspension; wheat seedlings; 100 = 100% disease control
Marks after values point to notes of the source that are not given here.
Parameter Measured: Test D disease control rating

For the molecule shown here, C#CCOC(=O)c1cnn(Cc2ccc(OCC(O)(O)C(F)(F)F)cc2)c1 , give the reported Test D disease control rating.
98*** %

State the recorded Test D disease control rating for this entry: CCO/C(=C\Oc1ccc(Cn2cc(C(=O)NC(C)C)cn2)cc1)C(F)(F)F
13*** %

Quick one: Test D disease control rating for O=C(NCC(F)(F)F)c1csc(Cc2ccc(OCC3(C(F)(F)F)OCCO3)cc2)n1 ?
91%

Which value of Test D disease control rating has been reported for CCOC(=O)c1cnn(Cc2ccc(SCC3(C(F)(F)F)OCCO3)cc2)c1 in the records?
19%

Could you share which Test D disease control rating value was measured for C#CCOC(=O)c1cnn(Cc2ccc(O/C=C(\OCC)C(F)(F)F)cc2)c1 ?
0*** %

Query: Test D disease control rating; subject: CCO/C(=C\Oc1ccc(Cn2cc(C(=O)OCC(C)C)cn2)cc1)C(F)(F)F
0*** %

Requested field: Test D disease control rating. Item: N#Cc1ccc(OCC2(C(F)(F)F)OCCO2)cc1
77%

Consider the molecule CC(=O)c1ccc(OCC(O)(O)C(F)(F)F)cc1 and give its measured Test D disease control rating.
96*** %

Requested field: Test D disease control rating. Item: CCO/C(=C\Oc1ccc(Cn2cc(C(=O)OC)cn2)cc1)C(F)(F)F
31*** %

---

Please go through the items and note down their Test E disease control rating.
System: Blumeria graminis f. sp. tritici (the causal agent of wheat powdery mildew)
Assay: Test E: preventive spray on wheat seedlings, visual disease rating (100 = 100% control; * 50 ppm, ** 10 ppm, *** 250 ppm)
Assay type: in vivo
Settings: 250 ppm test suspension; 100 = 100% disease control, 0 = no control
Excerpt: General protocol for preparing test suspensions for Tests A-E: the test compounds were first dissolved in acetone in an amount equal to 3% of the final volume and then suspended at the desired concentration (in ppm) in acetone and purified water (50/50 mix by volume) containing 250 ppm of the surfactant […] (polyhydric alcohol esters). The resulting test suspensions were then used in Tests A-E. The test suspension was sprayed to the point of run-off on wheat seedlings. […]
Marks after values point to notes of the source that are not given here.

Consider the compound CCOC(=O)c1cnn(Cc2ccc(OCC(O)(O)C(F)(F)F)c(F)c2)c1 and give its measured Test E disease control rating.
96*** %

Quick check: Test E disease control rating of CCOC(=O)c1cnn(Cc2ccc(O/C=C(\OCC)C(F)(F)F)c(C)c2)c1 ?
13*** %

Look up Test E disease control rating for this compound: CCO/C(=C\Oc1ccc(Cn2cc(C(=O)NCc3ncccn3)cn2)cc1)C(F)(F)F
81*** %

Field request: Test E disease control rating | item: CCO/C(=C\Oc1cccc(Cn2cc(C(=O)NC(C)C)cn2)c1)C(F)(F)F
0*** %

Recorded values, source patent US20240122180A1.
